meta.source: the NIST ThermoML archive (doi:10.1016/j.fluid.2010.12.008)

settings: Crystal 1; visual observation
property label: Normal melting temperature (°C)

Solved cases below.
CC[N+]1(C)CCCCC1.O=S(=O)([N-]S(=O)(=O)C(F)(F)F)C(F)(F)F : 84.56
CCCCCCO : -45.00
O : 0.00

a. CCCCCCCCCCCCO
b. CCCCCCCO
c. CCCCCCCCCCO
Prompt: Write the entries in order, lowest recorded Normal melting temperature first. Rank the items, then write their labels in that order.
Response: b, c, a
(b: -34.60 °C, c: 7.00 °C, a: 24.00 °C)
